- assayText: Inhibition of rabbit thrombin-induced platelet aggregation in rabbit platelet-rich plasma preincubated with rabbit liver microsomes for 4 hrs followed by addition to platelet
quantityName: IC50 (µM)

1. CCCCCCOC(=O)/N=C(\N)c1ccc(CC2c3nc4cc(C5(C(=O)N6CCCC6)CCCC5)ccc4n3CCN2C(=O)OCCCCCC)cc1 (stereo unspecified): 91.5
2. CCOC(=O)/N=C(\N)c1ccc(CC2NCCn3c2nc2cc(C4(C(=O)N5CCCC5)CCCC4)ccc23)cc1 (stereo unspecified): 88.2
3. N/C(=N\C(=O)OCc1ccccc1)c1ccc(CC2NCCn3c2nc2cc(C4(C(=O)N5CCCC5)CCCC4)ccc23)cc1 (stereo unspecified): 91.2
4. CC(C)COC(=O)/N=C(\N)c1ccc(CC2NCCn3c2nc2cc(C4(C(=O)N5CCCC5)CCCC4)ccc23)cc1 (stereo unspecified): 164
5. CCCCCCOC(=O)/N=C(\N)c1ccc(CC2NCCn3c2nc2cc(C4(C(=O)N5CCCC5)CCCC4)ccc23)cc1 (stereo unspecified): 25.3
6. CCCCCCOC(=O)N=C(N)c1ccc(NCc2nc3cc(C(=O)N(CCC(=O)OCC)c4ccccn4)ccc3n2C)cc1 [BIBR-1048]: 0.554
7. CC(C)(C)OC(=O)/N=C(\N)c1ccc(CC2NCCn3c2nc2cc(C4(C(=O)N5CCCC5)CCCC4)ccc23)cc1 (stereo unspecified): 8.16
8. Cc1nc(C)c(OC(=O)/N=C(\N)c2ccc(CC3NCCn4c3nc3cc(C5(C(=O)N6CCCC6)CCCC5)ccc34)cc2)nc1C (stereo unspecified): 1.95

----------
- assayText: Inhibition of rabbit thrombin-induced platelet aggregation in rabbit platelet-rich plasma preincubated with rabbit liver microsomes for 4 hrs followed by addition to platelet
Catalogue of IC50 values
quantityName: IC50

1) N/C(=N\C(=O)OCc1ccccc1)c1ccc(CC2c3nc4cc(C5(C(=O)N6CCCC6)CCCC5)ccc4n3CCN2C(=O)OCc2ccccc2)cc1 (stereo not drawn): > 1 mM
2) CC(C)COC(=O)/N=C(\N)c1ccc(CC2c3nc4cc(C5(C(=O)N6CCCC6)CCCC5)ccc4n3CCN2C(=O)OCC(C)C)cc1 (stereo not drawn): > 1 mM
3) CC(C)(C)OC(=O)/N=C(\N)c1ccc(CC2c3nc4cc(C5(C(=O)N6CCCC6)CCCC5)ccc4n3CCN2C(=O)OC(C)(C)C)cc1 (stereo not drawn): > 1 mM
